- System: YH-13 (Glioblastoma);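 also: after 72 h of two-drug dosing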
- testMethodNotes: Bliss excess, mean over the matrix (fraction); higher = more synergy
Recorded Bliss excess, one value per entry.
Give the figure by itself; no unit, no explanation.

# input Recorded Bliss excess of O=C(c1cc(Cc2n[nH]c(=O)c3ccccc23)ccc1F)N1CCN(C(=O)C2CC2)CC1 [Olaparib] + CN(CC[C@H](CSC1=CC=CC=C1)NC2=C(C=C(C=C2)S(=O)(=O)NC(=O)C3=CC=C(C=C3)N4CCC(CC4)[C@H](C5=CC=CC=C5C6=CC=C(C=C6)Cl)O)S(=O)(=O)C(F)(F)F)CCO [AZD4320] (first compound max 10 µM, 7x7, partner max 1 µM) , please.
# output 0.0012

# input Recorded Bliss excess of CN(C)CCCOc1ccc(-c2ccc3ncc4c(c3c2)n(C2CCOCC2)c(=O)n4C)cn1 [AZD0156] + C[C@@H]1COCCN1C2=NC(=NC(=C2)C3(CC3)[S@](=N)(=O)C)C4=C5C=CNC5=NC=C4 [AZD6738] (first compound max 1 µM, 7x7, partner max 10 µM) , please.
# output 0.0019

# input Recorded Bliss excess of CCN(CCO)CCCOc1ccc2c(Nc3cc(CC(=O)Nc4cccc(F)c4)[nH]n3)ncnc2c1 [AZD2811] + O=C(c1cc(Cc2n[nH]c(=O)c3ccccc23)ccc1F)N1CCN(C(=O)C2CC2)CC1 [Olaparib] (first compound max 1 µM, 7x7, partner max 10 µM) , please.
# output 0.0304
